The entries below are paired with their reported relative integration efficiency (log2).
- Test system: VchCAST RNA-guided transposition machinery (E. coli BL21(DE3) host, lacZ target)
- experimentalDetails: relative integration efficiency (T-RL orientation) vs wild-type transposon end (log2 (normalized fold change)); transposon end mutated: right end (5 bp flank + 75 bp right end); higher = more efficient transposition
measuredAttribute: relative integration efficiency (log2)

* ACATTTGTTGATACAACCATAAAATGATAATTACACCCATAAATTGATAATTATCACACCCATACCGGTCGCGGTAAGAGGATCATAGTCAGACCAACATTGCTACGACCCGTATTCGCACCGACAC | -0.58
* ACATTTGTTGATACAACCATAAAATGATAATTAATAATTATTTATAATCAGCAACTTAACCCACCCATAAATTGATAATTATCAACAAACGCCCGGTCGCGGTACTCTGATCATAGTCAGACCAACA | -2.76
* ACATTACTTGATACAACCATAAAATGATAATTACACCCATAAATTGATAATTATCACACCCATAAATTGATATTGCCTCTGATCATAGTCAGACCAACATTGCTACGACCCGTATTCGCACCGACAC | -6.45
* ACTAAAGTTGATACAACCATAAAATGATAATTACACCCATAAATTGATAATTATCACACCCATAAATTGATATTGCCTCTGATCATAGTCAGACCAACATTGCTACGACCCGTATTCGCACCGACAC | -6.65
* ACATTTGTTGATACAACCATAAAATGATAATTACACCCATAAATTCATAATTATCACCCCCAATTTAACTATAACGCTCTGATCATAGTCAGACCAACATTGCTACGACCCGTATTCGCACCGACAC | -1.95
* ACATTTGTTGATACAACGATAAAATGATAATTACACCGATAAATTGATAATTATCACACCGATAAATTGATATTGCCTCTGATCATAGTCAGACCAACATTGCTACGACCCGTATTCGCACCGACAC | -0.127
* ACATTTGTTGATACAACCATAAAATGATAATTACACCCATAAATTGATAATTATCACACCCATAAATTGATATTGCCTCTGTTGACAGCTAGCTCAGTCCTAGGTATAATGCTAGCCGCACCGACAC | -0.0954
* ACATTTGTTGATACAACCATCAAATGGTAATTCCACCCATAAATTGATAATTATCACACCCAATTTAACTATAACGCTCTGATCATAGTCAGACCAACATTGCTACGACCCGTATTCGCACCGACAC | -2.06
* ACATTTGTTGATACACCCATAAATTGATATTGCCAACCATAAAGTGATATTTATCACAACCATATATTGATATCTCCTCTGATCATAGTCAGACCAACATTGCTACGACCCGTATTCGCACCGACAC | -0.78
* ACATTAGTGGATACAACCATAAAATGATAATTACACCCATAAATTCATCATTATCACACCCAATTTAACTATAACGCTCTGATCATAGTCAGACCAACATTGCTACGACCCGTATTCGCACCGACAC | -7.21
* ACATTTGTTGATAGTTGGTATTTTACTATTAATCACCCATAAATTGATAATTATCAGTGGGTATTTAACTATAACGCTCTGATCATAGTCAGACCAACATTGCTACGACCCGTATTCGCACCGACAC | -5.71
* ACATTTGTTGATACAACCATAAAATGATAATTACACCCATAAATTGATAATATAGACACCCATAAATTGATATTGCCTCTGATCATAGTCAGACCAACATTGCTACGACCCGTATTCGCACCGACAC | -0.321
* ACATTTGTTGATACAACCATAAAGTGATATTTACACCCATAAATTGATATTGCTCACAACCATATATTGATATCTCCTCTGATCATAGTCAGACCAACATTGCTACGACCCGTATTCGCACCGACAC | -0.534
* ACATTTGTTGATACAACCATAAAATGATAATTACACCCATAAATTGATAATTATCACACCCATAAATTGATATTGCCTCTACATGAATTCAAAGTTATGTAATATAGTACTATGTACGCACCGACAC | -0.373
